- target.system: Transcription factor Sp1 (Homo sapiens) (UniProt P08047)
- Sequence (P08047 whole entry, looked up): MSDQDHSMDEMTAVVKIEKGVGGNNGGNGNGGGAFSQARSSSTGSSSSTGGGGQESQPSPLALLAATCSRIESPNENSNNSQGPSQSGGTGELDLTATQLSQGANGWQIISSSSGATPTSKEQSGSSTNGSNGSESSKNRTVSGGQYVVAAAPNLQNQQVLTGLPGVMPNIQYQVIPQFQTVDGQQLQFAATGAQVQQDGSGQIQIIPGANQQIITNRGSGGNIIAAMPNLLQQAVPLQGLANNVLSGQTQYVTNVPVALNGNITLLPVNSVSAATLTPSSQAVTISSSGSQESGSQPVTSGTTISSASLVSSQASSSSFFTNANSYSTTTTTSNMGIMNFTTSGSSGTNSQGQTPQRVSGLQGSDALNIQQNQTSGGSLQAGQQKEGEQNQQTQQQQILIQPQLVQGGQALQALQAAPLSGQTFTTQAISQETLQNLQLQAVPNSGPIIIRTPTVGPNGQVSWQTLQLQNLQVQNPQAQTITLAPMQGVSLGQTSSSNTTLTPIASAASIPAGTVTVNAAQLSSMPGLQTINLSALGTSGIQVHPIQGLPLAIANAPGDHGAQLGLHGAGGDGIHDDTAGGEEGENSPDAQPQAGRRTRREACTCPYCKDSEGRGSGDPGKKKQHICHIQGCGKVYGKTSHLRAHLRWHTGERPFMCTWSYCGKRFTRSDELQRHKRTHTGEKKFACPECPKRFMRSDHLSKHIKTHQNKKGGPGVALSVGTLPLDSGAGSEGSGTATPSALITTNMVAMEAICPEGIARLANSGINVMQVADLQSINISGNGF
- assay.explanation: ATG_Sp1_CIS: Attagene CIS-FACTORIAL HepG2 Assay for human Specificity Protein 1 (Sp1) (AID 2282961)
- measurement.setup: HepG2 Sp1 cis-reporter transcription, actives raise or lower the signal
Activity calls are given as the source filed them. How the source made its calls: active means hit-call score of the fitted dose curve at least 0.9, where 1 is the maximum; inactive means score below 0.9.
property.name: outcome

Past entries and their recorded results:
Suppose we examine the compound CCn1nc(C)c2c1C(=O)NCC(c1ccc(O)cc1)=N2 ; what outcome value has been reported?
inactive

Another compound to check: O=S(=O)(O)CCC(F)(F)C(F)(F)C(F)(F)C(F)(F)C(F)(F)C(F)(F)F
inactive

Another compound to check: OCCNCCO
inactive

Another compound to check: O=C(O)CO
inactive

Others:
Suppose we examine the compound CC(=O)c1ccccc1 ; what outcome value has been reported?
inactive

Another compound to check: FC(F)C(F)(F)COCC1CO1 (stereo not drawn)
inactive

Another compound to check: CCc1ccc(O)c(C(C)(C)C)c1
inactive

Another compound to check: CCCCCCCCCCCCCCCCOS(=O)(=O)O
inactive

Another compound to check: C[C@@H](Oc1ccc(CNC(=O)c2cccnc2Oc2ccc3c(c2)OCO3)c(F)c1)C(=O)O
inactive

Another compound to check: O=C1CN(N=Cc2ccc([N+](=O)[O-])o2)C(=O)N1
inactive

Another compound to check: OCC(CO)(CO)CO
inactive

Another compound to check: CC(C)CCCCCCOC(=O)C1CCCCC1C(=O)OCCCCCCC(C)C (stereo not drawn)
inactive

Another compound to check: O=C(Cl)C(F)(F)C(F)(F)C(F)(F)C(=O)Cl
inactive

* * *

- Read-out: TIMP metallopeptidase inhibitor 2 (TIMP2), TIMP2 (gene 7077)
- assay.explanation: BSK_hDFCGF_TIMP2: BioMAP Diversity Plus: hDFCGF Assay for TIMP metallopeptidase inhibitor 2 (TIMP2) Biomarker Activity (AID 2284289)
- measurement.setup: primary human foreskin fibroblasts
The source made the active and inactive calls. The calls were made as follows: active = hit-call score of the fitted dose curve at least 0.9, where 1 is the maximum; inactive = score below 0.9.
property.name: outcome

Past entries and their recorded results:
Suppose we examine the molecule C[Si](C)(C)C(F)(F)C(F)(F)C(F)(F)F ; what outcome value has been reported?
inactive

Another molecule to check: O=S(=O)(O)CCC(F)(F)C(F)(F)C(F)(F)C(F)(F)C(F)(F)C(F)(F)F
inactive

Another molecule to check: OCCC(F)(F)C(F)(F)C(F)(F)C(F)(F)F
inactive

Another molecule to check: FC(F)(F)C(F)(F)C(F)(F)C(F)(F)C(F)(F)C(F)(F)I
inactive

Others:
Suppose we examine the molecule NCC(F)(F)C(F)(F)C(F)(F)C(F)(F)F ; what outcome value has been reported?
inactive

Another molecule to check: FC(F)C(F)(F)COCC1CO1 (stereo not drawn)
inactive

Another molecule to check: FC(F)(F)COC(OCC(F)(F)F)OCC(F)(F)F
inactive

Another molecule to check: FC(F)=C(F)C(F)(F)C(F)(F)C(F)(F)C(F)(F)C(F)(F)C(F)(F)F
inactive

* * *

- Read-out: Monokine induced gamma interferon (MIG), CXCL9 (gene 4283)
- assay.explanation: BSK_SAg_MIG: BioMAP Diversity Plus: SAg Assay for Monokine induced gamma interferon (MIG) Biomarker Activity (AID 2283092)
- measurement.setup: primary human HUVEC with PBMC; actives raise or lower the signal
Calls of active or inactive are those of the source. How the source made its calls: active means hit-call score of the fitted dose curve at least 0.9, where 1 is the maximum; inactive means score below 0.9.
Return exactly one item of active, inactive

Hi, sorry to bother you, what did the test record for OCC(CO)(CO)CO ?
inactive

Others:
Hi, sorry to bother you, what did the test record for CCCOc1ccc(S(=O)(=O)N2CCN(CC)CC2)cc1-c1nc2c(CC)n(Cc3ccccn3)nc2c(=O)[nH]1 ?
inactive

Another compound to check: O=C(O)c1ccc2c(c1)nc(C(=O)NC1CCN(C3CC3)CC1)n2Cc1cc(-c2ccc(Cl)s2)on1
inactive

Another compound to check: CCCCCOC(C)=O
inactive

Another compound to check: COc1cc(C(C)C)c2c(c1)S(=O)(=O)N(COc1cc(=O)n3cccc(OCCN4CCCCC4)c3n1)C2=O
inactive

Another compound to check: FC(F)=C(F)C(F)(F)C(F)(F)C(F)(F)C(F)(F)C(F)(F)C(F)(F)F
inactive

Another compound to check: Cc1nccn1-c1ccc(Sc2cccc(C3(C(N)=O)CCOCC3)c2)cc1
inactive

Another compound to check: C=CN1CCCC1=O
inactive

Another compound to check: O=S1(=O)CCCO1
inactive

Another compound to check: CCCCCCCC/C=C\CCCCCCCC(=O)OC[C@@H](O)[C@H]1OC[C@H](O)[C@H]1O
inactive
